Data origin: PubChem BioAssay AID2060506

Test system: 598228-144-R-J1-PDC complex spheroid viability;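 note: spheroids exposed to the agents for one week before reading; percent of vehicle DMSO control viability so 100% = untreated growth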
Assay: Anticancer human tumor 598228-144-R-J1-PDC patient-derived serous endometrial adenocarcinoma cell line growth inhibition [GQUAD]
Conditions: second compound 0.1 µM; first compound 3.16 µM; active compounds read low
READOUT TYPE: viability, T/C

Illustrative cases are given below, each with its answer.
CC1COCCN1c1cc(C2(O)CC3CCC(C2)O3)c2cnn(-c3ccn[nH]3)c2n1 (stereo not drawn) + CN(C)c1ccc(Nc2c3ccc(NC(=O)CCN4CCCC4)cc3nc3cc(NC(=O)CCN4CCCC4)ccc23)cc1 ... 28.2%
CC(C)(O)C1CCC(Nc2ccc3ncc(-c4cccc(C(F)(F)F)c4)n3n2)CC1 (stereo not drawn) + Cc1cnc(CNC(=O)c2c(=O)c3ccc(N4CCCN(C)CC4)nc3n3c2sc2ccccc23)cn1 ... 22.9%

Now look at this one.
(Q) Quick check: viability, T/C on 598228-144-R-J1-PDC complex spheroid viability, item CC1COCCN1c1cc(-c2ccnn2C)c2ccnc(-c3ccn[nH]3)c2n1 (stereo not drawn) + Cc1cnc(CNC(=O)c2c(=O)c3ccc(N4CCCN(C)CC4)nc3n3c2sc2ccccc23)cn1 ?
(A) 38.3%
